Biological target: T1, acetylcholine binding protein from Lymnaea stagnalis (Lymnaea stagnalis, UniProt P58154 20-229)
T1 construct: also called AChBP; L. stagnalis AChBP
T1 sequence (P58154 20-229): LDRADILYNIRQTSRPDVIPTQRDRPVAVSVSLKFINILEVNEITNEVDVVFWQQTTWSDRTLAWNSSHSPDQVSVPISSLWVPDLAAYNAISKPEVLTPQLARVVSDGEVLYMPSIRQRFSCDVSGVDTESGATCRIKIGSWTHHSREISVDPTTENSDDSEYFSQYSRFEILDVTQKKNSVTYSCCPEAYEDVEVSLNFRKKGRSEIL
Test: other fluorescence titration
Details: both partners purified
pKd: −log10 of the molar value.
READOUT: pKd

- HOBDI-BF2–α-CbTx (natural protein) IRCFITPDITSKDCPNGHVCYTKTWCDAFCSIRGKRVDLGCAATCPTVKTGVDIQCCSTDNCNPFPTRKRP: ~6.70
